Tested on: Streptococcus sp.
Test: In vitro antibacterial evaluation: minimum inhibitory concentration (MIC), broth dilution method
Format: cell-based
Conditions: Streptococcus pneumoniae (GC 1894); broth dilution, 18 hours at 35° C.
value-type: MIC Streptococcus pneumoniae (GC 1894) (mg/L)
Answer with a number only, understood to be in mg/L.

compound="CC(c1ccccc1)C1NC(=O)CNC(=O)C(CO)NC(=O)C(C(O)C2CNC(=N)N2C2OC(CO)C(O)C(O)C2O)NC(=O)C(C(O)C2CNC(=N)N2)NC(=O)C(Cc2ccc3oc(-c4ccoc4)nc3c2)NC1=O (stereo not drawn)" value_type="MIC Streptococcus pneumoniae (GC 1894)" quantitative_readout=32
compound="CC(c1ccccc1)C1NC(=O)CNC(=O)C(CO)NC(=O)C(CC2CNC(=N)N2C2OC(CO)C(O)C(O)C2O)NC(=O)C(CC2CNC(=N)N2)NC(=O)C(Cc2ccc3oc(-c4ccc5c(c4)Cc4ccccc4-5)nc3c2)NC1=O (stereo not drawn)" value_type="MIC Streptococcus pneumoniae (GC 1894)" quantitative_readout=16
compound="CC(c1ccccc1)C1NC(=O)CNC(=O)C(CO)NC(=O)C(C(O)C2CNC(=N)N2C2OC(CO)C(O)C(O)C2O)NC(=O)C(C(O)C2CNC(=N)N2)NC(=O)C(Cc2ccc3oc(=O)[nH]c3c2)NC1=O (stereo not drawn)" value_type="MIC Streptococcus pneumoniae (GC 1894)" quantitative_readout=8
compound="CC(C)=CCCC(C)=CCN=C1NCC(C(O)C2NC(=O)C(C(O)C3CNC(=N)N3)NC(=O)C(Cc3ccc(OC4OC(CO)C(OC5OC6COC7(OC6C(O)C5O)C5CC6CC(C5)CC7C6)C(O)C4O)cc3)NC(=O)C(C(C)c3ccccc3)NC(=O)CNC(=O)C(CO)NC2=O)N1C1OC(CO)C(O)C(O)C1O (stereo not drawn)" value_type="MIC Streptococcus pneumoniae (GC 1894)" quantitative_readout=0.25

Okay, next one:
I'd like to know its MIC Streptococcus pneumoniae (GC 1894). The compound in question is CC(c1ccccc1)C1NC(=O)CNC(=O)C(CO)NC(=O)C(C(O)C2CN(Cc3ccc4ccccc4c3)C(=N)N2C2OC(CO)C(O)C(O)C2O)NC(=O)C(C(O)C2CNC(=N)N2)NC(=O)C(Cc2ccc(OC3OC(CO)C(OC4OC(CO)C(O)C(O)C4O)C(O)C3O)cc2)NC1=O (stereo not drawn)
64
